- assay-protocol: NCI Yeast Anticancer Drug Screen. Data for the bub3 strain (AID 167)
- stated-conditions: S. cerevisiae bub3 mutant strain, at 50.0 µM, hits give high values
About 79,000 compounds went through this panel and 15% of them were active in at least one assay; those are over-represented in the sample as a whole.
Hi there, I'd appreciate the recorded growth inhibition for every entry that follows.
Give bare numbers, in %.

NC(=O)c1nnc2ccc(F)cc2c1N = -9.35
N#Cc1ccc(OCCCCCOc2ccc([N+](=O)[O-])cc2)cc1 = 13.9
COc1cc(Cl)c(CC(=O)c2c[nH]c3ccccc23)cc1OC = -29.2
CC(C)c1ccc2nc3ccc(C(=O)NCCN(C)C)cn3c(=O)c2c1 = -1

Provide growth inhibition values for the following items, in order.
1. CN1CCC2(CC1)C(=O)N(NC(N)=O)C(=O)C2c1ccccc1 (configuration not stated)
2. O=C(O)C(Nc1ccc(Cc2ccc(NC(C(=O)O)c3ccccc3)cc2)cc1)c1ccccc1 (configuration not stated)
3. O=C(O)C(=Cc1ccnc2ccccc12)C(=O)O
4. CCN(CC)CCC(O)(c1cccc(Cl)c1)C1CCCCC1 (configuration not stated)
5. CN(C)C(=O)Nc1cccc2c(NC(=O)N(C)C)cccc12
6. O=C1NC(CN2CCC(O)CC2)C(=O)NC1CN1CCC(O)CC1 (configuration not stated)

Output:
1. 1
2. 37.7
3. -52.2
4. -7.95
5. -4.45
6. -1.05

Provide growth inhibition values for the following items, in order.
1. CCCCC/C(C)=C\C(=O)O
2. CCN(CC)CCOC(C)=O
3. O=C(NC(=O)C(F)(F)F)Nc1cccc(C(F)(F)F)c1
4. COC(=O)C1=C(C(=O)OC)SC(=C2c3ccsc3-c3sccc32)S1

Output:
1: -2.4; 2: -11.1; 3: -8.25; 4: 1.3

Provide growth inhibition values for the following items, in order.
1. CC(O)C(NC(=O)c1cnc2ccccc2n1)C(=O)O (configuration not stated)
2. O=C([O][Sb]([O]C(=O)C(Br)Br)([c]1ccccc1)([c]1ccccc1)[c]1ccccc1)C(Br)Br

Output:
1: 15.9; 2: -0.1
